Just for reference, paper PMC8041772 is where these values come from.

Target: DgcR (Leptospira biflexa, UniProt B0SUI1)
Construct: full-length (298 residues), dimer
Sequence (B0SUI1 1-298): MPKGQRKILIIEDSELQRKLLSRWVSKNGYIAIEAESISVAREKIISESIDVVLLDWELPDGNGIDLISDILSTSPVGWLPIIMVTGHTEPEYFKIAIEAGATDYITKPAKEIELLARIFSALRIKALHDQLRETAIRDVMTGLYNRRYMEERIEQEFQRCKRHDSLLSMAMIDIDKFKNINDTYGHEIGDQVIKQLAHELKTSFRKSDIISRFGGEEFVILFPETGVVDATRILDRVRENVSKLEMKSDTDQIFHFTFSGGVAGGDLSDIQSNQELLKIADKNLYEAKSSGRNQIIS
Test: crystal structure at […] Å (DgcR_inh); product-inhibition Ki from progress curves (oIEC), about […] for BeF3-activated and about […] for native enzyme
pKi: −log10 of the molar value.
MEASURED ENDPOINT: pKi

Response field pKi (DgcR (Leptospira biflexa, UniProt B0SUI1)) for item Nc1nc2c(ncn2[C@@H]2O[C@@H]3CO[P@](=O)(O)O[C@H]4[C@@H](O)[C@H](n5cnc6c(=O)[nH]c(N)nc65)O[C@@H]4CO[P@](=O)(O)O[C@H]3[C@H]2O)c(=O)[nH]1 [c-di-GMP] : ~6.82
